Molecular target: T1, VLP-hCLDN6 (human) (UniProt P56747)
T1 sequence: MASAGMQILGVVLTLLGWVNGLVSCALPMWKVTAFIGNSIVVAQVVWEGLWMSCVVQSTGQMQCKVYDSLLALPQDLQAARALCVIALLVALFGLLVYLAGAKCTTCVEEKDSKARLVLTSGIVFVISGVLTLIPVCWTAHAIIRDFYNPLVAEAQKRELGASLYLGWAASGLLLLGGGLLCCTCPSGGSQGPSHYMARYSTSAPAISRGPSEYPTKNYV
Assay: ELISA, coated VLP-hCLDN6, 10 ul antibody sample (second well), HRP-Protein A
Endpoint label: OD450
Answer with the value's number alone.

[Q] Supply reported OD450 belonging to this binder: humanized antibody hAb-21 (antibody, V domains shown) VH: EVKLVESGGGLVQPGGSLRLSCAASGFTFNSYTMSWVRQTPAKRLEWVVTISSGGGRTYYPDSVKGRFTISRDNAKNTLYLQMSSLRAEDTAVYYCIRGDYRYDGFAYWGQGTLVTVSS VL: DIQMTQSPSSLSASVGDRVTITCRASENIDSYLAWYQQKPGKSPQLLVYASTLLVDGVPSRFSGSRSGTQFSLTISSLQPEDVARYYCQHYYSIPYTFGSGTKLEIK
[A] 1.9
